- assay remarks: Compound was evaluated for the binding affinity at 5- HT1A receptor
readout label: pKi
Keep in mind that pKi stands for -log10 of concentration in molar terms.

So, N=C(N)NN=Cc1c[nH]c2ccc(O)cc12 ? Its pKi was 7.20

Numbers sourced from BindingDB's records for doi:10.1021/jm00013a009.
